# TESTED SYSTEM: Short transient receptor potential channel 6 (Mus musculus) (UniProt Q61143)
# Sequence (Q61143 whole entry, looked up): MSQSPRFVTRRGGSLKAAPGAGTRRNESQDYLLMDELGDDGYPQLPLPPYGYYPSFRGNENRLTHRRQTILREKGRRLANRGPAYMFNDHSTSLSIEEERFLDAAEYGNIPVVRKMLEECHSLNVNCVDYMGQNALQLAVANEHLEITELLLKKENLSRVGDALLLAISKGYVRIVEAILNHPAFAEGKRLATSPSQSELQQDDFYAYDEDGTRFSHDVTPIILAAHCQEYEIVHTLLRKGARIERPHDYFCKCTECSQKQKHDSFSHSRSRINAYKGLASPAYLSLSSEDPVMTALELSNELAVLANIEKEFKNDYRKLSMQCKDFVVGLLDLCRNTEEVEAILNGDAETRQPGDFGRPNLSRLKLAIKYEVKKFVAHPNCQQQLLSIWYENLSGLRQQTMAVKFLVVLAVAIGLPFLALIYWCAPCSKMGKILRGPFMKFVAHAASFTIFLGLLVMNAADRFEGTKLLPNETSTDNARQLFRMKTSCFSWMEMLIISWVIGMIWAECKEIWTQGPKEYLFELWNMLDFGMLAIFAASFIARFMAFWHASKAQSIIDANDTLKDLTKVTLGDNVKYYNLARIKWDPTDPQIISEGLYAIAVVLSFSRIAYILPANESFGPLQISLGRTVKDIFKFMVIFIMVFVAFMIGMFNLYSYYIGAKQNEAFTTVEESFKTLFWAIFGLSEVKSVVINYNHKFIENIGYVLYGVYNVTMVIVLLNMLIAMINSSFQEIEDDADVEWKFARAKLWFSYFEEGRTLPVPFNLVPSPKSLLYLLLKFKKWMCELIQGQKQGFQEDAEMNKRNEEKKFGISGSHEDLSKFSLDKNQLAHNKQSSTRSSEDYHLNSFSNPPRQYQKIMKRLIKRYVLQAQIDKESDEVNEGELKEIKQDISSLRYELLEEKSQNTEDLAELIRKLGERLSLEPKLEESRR
# EXPERIMENT: TRPC6 blockade by TRPC4 inhibitor hits – cell-based, HEK293, membrane potential dye, duplicate, selectivity assay for TRPC4 inhibitor project, confirmation (AID 434948)
# CONDITION NOTES: HEK293 TRPC6, membrane potential dye fluorescence, at 10 µM, stimulated with maximal-effect acetylcholine
Calls of active or inactive are those of the source.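 The calls were made as follows: active = active in primary screen and both duplicates, each dropping signal beyond three positive-control SD with fluorescence still positive; inactive = the rest.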
Write down one outcome, taken from active, inactive

Recorded call for CC1(C)Cc2nc3oc4c(=O)n(CC(=O)Nc5ccccc5)cnc4c3cc2CO1 ?
inactive

Short answer needed: outcome of this test for COc1ccc(OC)c(Nc2cc(-c3ccccc3)nc(N)n2)c1 ?
active

Given CSc1ccc(S(=O)(=O)NCC(=O)OCC(=O)N(C)Cc2ccccc2)cc1[N+](=O)[O-] , state the outcome it received in this test.
inactive

What outcome does the record of this test show for Cc1cc(C(C)(C)C)cc(S(=O)(=O)Nc2cccc(C(=O)O)c2)c1C ?
inactive

State the result this test recorded for O=c1c(Cc2ccccc2)c(O)ccn1CCc1cnc[nH]1 .
inactive

Which outcome was entered for the compound CNCc1c(OCc2ccccc2)ccc2ccccc12 in this test?
active

Per the assay record, what outcome was assigned to Cc1cccc(Cc2c(C)nc3c(C(=O)NCc4ccco4)cnn3c2C)c1 ?
inactive

Each compound tested received a call. Report the one for CCn1c(N2CCN(C(=S)NCC(C)C)CC2)nc2ccccc21 .
inactive

Hi, do you know how COc1ccc(-n2nc(C(=O)NCC(=O)NCCCN3CC(C)CC(C)C3)c3ccccc3c2=O)cc1Cl (configuration not stated) came out in this test?
inactive

What did this assay record as the result for Cc1ccc(-c2ccc3c(c2)S(=O)(=O)c2ccccc2C3=O)cc1 ?
inactive

For COc1ccc(CNCc2cn(-c3cccc(F)c3)nc2-c2ccc(C)o2)cc1 , which call appears in the assay record?
inactive

What outcome does the record of this test show for COC(=O)NCC(c1ccc2c(c1)OCO2)N1CCN(c2ccc(OC)cc2)CC1 (configuration not stated) ?
inactive

What is the recorded call for this compound in the test? Cc1ccc(Cn2c(Cc3ccccc3)nc3ccccc32)cc1
inactive

Which outcome was assigned to Cc1ccc(N(CC(=O)NC2CCCC2)C(=O)CNC(=O)c2cccs2)cc1F in this test?
inactive

Call for entry O=C(COc1ccccc1)NC1CCCCCCC1 :
inactive

Test call for this compound, please: O=C(Nc1ccccc1N1CCN(C(=O)c2ccccc2)CC1)c1ccc(Br)o1
inactive

Assay result, entry CC(Sc1nc2sc3c(c2c(=O)n1-c1ccccc1)CCCC3)C(=O)O (configuration not stated) — outcome?
inactive

GET /call?item= CN1CCN(c2ccc(S(=O)(=O)N3CCCCC3)cc2NC(=O)c2ccc(F)cc2F)CC1 returns the recorded outcome of this test.
inactive

Look up the recorded call for O=C(COC(=O)c1c(Cl)cccc1Cl)Nc1ccccc1Br in this test.
inactive

Lab log entry: Cc1cccc(CCN(C(=O)c2snc(C(N)=O)c2N)C(C(=O)NCC2CCCO2)c2ccc(F)cc2)c1 (configuration not stated) — outcome as called in the assay?
inactive

Hi, do you know how C=CCn1cnc2scc(-c3ccc(CC)cc3)c2c1=O came out in this test?
inactive

Look up the recorded call for N=c1c2c(n(Cc3ccc(Br)cc3)c3c1CCC3)CCCC2 in this test.
inactive

Dear colleague, could you share the recorded outcome for CCOc1ccc(CCNC(=O)c2ccc3c(=O)[nH]c4c(C(=O)NC(C)C)sc(=S)n4c3c2)cc1 when you have a moment?
inactive

What did this assay record as the result for COc1ccc(CC2(CO)CCN(C/C=C/c3ccccc3OC)CC2)cc1 ?
inactive

Tell me the recorded outcome of this test for CN(C)C(CNC(=O)Nc1cccc(Cl)c1)c1cccnc1 (configuration not stated) .
inactive

Could you kindly confirm the outcome this assay logged for Cn1c(=O)cc(OCCCC(=O)NCCCN2CCN(Cc3ccccc3)CC2)c2ccccc21 ?
inactive

Outcome logged for CCC(C)[C@H](Nc1nc(-c2ccccc2)nc2c1oc1ccccc12)C(=O)O (some centres not stated) in this assay:
inactive

GET /call?item= Cc1cccc(C)c1N1CCc2cn[nH]c21 returns the recorded outcome of this test.
inactive

Any idea what this test logged for Cc1cc(OCC(=O)NC2CCCCC2)ccc1Cl ?
inactive

What is the recorded call for this compound in the test? CCOc1ccc(Nc2nc(Cc3nnc(SCC(=O)c4ccc(C)cc4)o3)cs2)cc1
inactive

In this assay, the call recorded for CCCCCCc1cc2cc(-c3nnc(-c4ccccc4O)o3)c(=O)oc2cc1O was what?
inactive

Give the logged outcome of this assay for the following compound: Cc1ccc(OCc2cc(C(=O)N(C)CCc3nc4ccccc4[nH]3)no2)cc1C
inactive

What did the test return for CC1CC(C)CN(CCCNC(=O)c2ccc3c(c2)N(Cc2ccccc2)C(=O)c2ccccc2S3=O)C1 (configuration not stated) ?
inactive

Record lookup: outcome of this test for S=C(NCCc1cnc[nH]1)NC1CCCC1 ?
inactive

Any idea what this test logged for COC(=O)c1ccccc1NC(=O)c1cnn2cccnc12 ?
inactive

How did this test come out for CN1CCN(CCCNC(=O)CN2C(=O)COc3ccccc32)CC1 ?
inactive

What did this assay record as the result for CCN1C(=O)/C(=C/C=C2\N(CC)c3cc(S(=O)(=O)N(C)C)ccc3N2c2ccccc2)SC1=S ?
inactive

Origin of measurements: PubChem BioAssay
